Target entity: human recombinant GCS expressed in insect cells (Homo sapiens, UniProt Q16739)
Construct: made in house; host or cells: insect cells
Sequence (Q16739 1-394): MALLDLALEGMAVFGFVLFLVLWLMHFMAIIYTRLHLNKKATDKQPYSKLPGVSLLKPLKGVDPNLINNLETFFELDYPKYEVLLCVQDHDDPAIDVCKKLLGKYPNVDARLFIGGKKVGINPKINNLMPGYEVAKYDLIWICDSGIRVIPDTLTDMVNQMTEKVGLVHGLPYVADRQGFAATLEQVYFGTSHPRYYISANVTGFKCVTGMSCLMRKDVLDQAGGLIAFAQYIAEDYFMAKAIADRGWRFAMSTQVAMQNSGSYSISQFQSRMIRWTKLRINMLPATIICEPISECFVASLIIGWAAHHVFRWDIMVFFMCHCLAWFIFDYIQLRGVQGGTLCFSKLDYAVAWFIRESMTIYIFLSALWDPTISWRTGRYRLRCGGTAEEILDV
Assay: Inhibition of GCS
Format: biochemical
Settings: read-out: Inhibition of glucosylceramide synthase (IC50 μM)
Readout name: IC50 (µM)

{"columns": ["Entry smiles", "Target entity", "Units text", "Measurement"],
 "data": [
  ["CCCCCOc1ccc(CN2C[C@H](O)[C@@H](O)[C@@H](O)[C@@H]2CO)cc1", "human recombinant GCS expressed in insect cells (Homo sapiens, UniProt Q16739)", "µM", 4.8]
]}
